Values compiled from BindingDB's records for doi:10.1016/j.bmcl.2019.04.027.

- method.summary: Inhibition of NS5A in HCV genotype 3a S52 infected in human HuH7 transient chimeric replicon cells assessed as reduction in viral replication after 3 days by luciferase reporter gene assay
The class of a record is decided solely by its measured EC50; consult low bracket: < 0.02 nM; middle bracket: ≥ 0.02 nM and < 0.05 nM; high bracket: ≥ 0.05 nM

>  <cpd.smiles>
COC[C@H]1C[C@@H](c2nc3ccc4cc5c(cc4c3[nH]2)OCc2cc(-c3cnc([C@@H]4CC[C@H](C)N4C(=O)[C@@H](NC(=O)OC)C(C)C)[nH]3)ccc2-5)N(C(=O)[C@@H](NC(=O)OC)C(C)C)C1

>  <assigned.label>
high bracket

$$$$
>  <cpd.smiles>
COC(=O)N[C@H](C(=O)N1CCC[C@H]1c1ncc(-c2ccc3c(c2)COc2c-3ccc3c2ccc2nc([C@@H]4CCCN4C(=O)[C@@H](NC(=O)OC)C(C)C)[nH]c23)[nH]1)C(C)C

>  <assigned.label>
low bracket

$$$$
>  <cpd.smiles>
COC[C@H]1C[C@@H](c2ncc(-c3cc4c5c(c3)OCc3cc(-c6cnc([C@@H]7CC[C@H](C)N7C(=O)[C@@H](NC(=O)OC)C(C)C)[nH]6)cc(c3-5)OC4)[nH]2)N(C(=O)[C@H](NC(=O)OC)c2ccccc2)C1

>  <assigned.label>
high bracket

$$$$
>  <cpd.smiles>
COC(=O)N[C@@H](C(=O)N1C[C@@H](C)C[C@H]1c1ncc(-c2cc3c4c(c2)OCc2cc(-c5cnc([C@@H]6C[C@H](C)CN6C(=O)[C@H](NC(=O)OC)c6ccccc6)[nH]5)cc(c2-4)OC3)[nH]1)c1ccccc1

>  <assigned.label>
low bracket

$$$$
>  <cpd.smiles>
COC[C@H]1C[C@@H](c2ncc(-c3ccc4c(c3)COc3cc5c(ccc6nc([C@@H]7C[C@@H]8C[C@H]8N7C(=O)[C@@H](NC(=O)OC)C(C)C)[nH]c65)cc3-4)[nH]2)N(C(=O)[C@H](NC(=O)OC)c2ccccc2)C1

>  <assigned.label>
middle bracket

$$$$
>  <cpd.smiles>
COC[C@H]1C[C@@H](c2nc3ccc4cc5c(cc4c3[nH]2)OCc2cc(-c3cnc([C@@H]4C[C@H](C)CN4C(=O)[C@@H](NC(=O)OC)C(C)C)[nH]3)ccc2-5)N(C(=O)[C@@H](NC(=O)OC)C(C)C)C1

>  <assigned.label>
high bracket

$$$$
>  <cpd.smiles>
COC[C@H]1C[C@@H](c2ncc(-c3ccc4c(c3)COc3cc5c(ccc6nc([C@@H]7C[C@H](C)CN7C(=O)[C@@H](NC(=O)OC)C(C)C)[nH]c65)cc3-4)[nH]2)N(C(=O)[C@H](NC(=O)OC)c2ccccc2)C1

>  <assigned.label>
middle bracket

$$$$
>  <cpd.smiles>
COC[C@H]1C[C@@H](c2ncc(-c3ccc4c(c3)COc3cc5c(ccc6nc([C@@H]7C[C@H]8C[C@@H]8N7C(=O)[C@@H](NC(=O)OC)C(C)C)[nH]c65)cc3-4)[nH]2)N(C(=O)[C@H](NC(=O)OC)c2ccccc2)C1

>  <assigned.label>
low bracket

$$$$
>  <cpd.smiles>
COC(=O)N[C@H](C(=O)N1CCC[C@H]1c1ncc(-c2ccc3c(c2)COc2cc4c(ccc5nc([C@@H]6C[C@H](C)CN6C(=O)[C@@H](NC(=O)OC)C(C)C)[nH]c54)cc2-3)[nH]1)C(C)C

>  <assigned.label>
low bracket

$$$$
>  <cpd.smiles>
CCO[C@H]1C[C@@H](c2nc3ccc4cc5c(cc4c3[nH]2)OCc2cc(-c3cnc([C@@H]4CCCN4C(=O)[C@@H](NC(=O)OC)C(C)C)[nH]3)ccc2-5)N(C(=O)[C@@H](NC(=O)OC)C(C)C)C1

>  <assigned.label>
middle bracket

$$$$
